Cited source: paper PMC12015242

biological target: human CB2R (SNAP-CB2) (Homo sapiens); construct: truncated CB1R (CB1R91-472) and full-length CB2R (CB2R1–360); 5HT3A signal peptide (N, cleaved yes); expressed in transfected cells; membranes; test: Fluorescent ligand kinetic association binding, TR-FRET; settings: 25°C
Sequence (P34972 whole entry, the tested form may be a part): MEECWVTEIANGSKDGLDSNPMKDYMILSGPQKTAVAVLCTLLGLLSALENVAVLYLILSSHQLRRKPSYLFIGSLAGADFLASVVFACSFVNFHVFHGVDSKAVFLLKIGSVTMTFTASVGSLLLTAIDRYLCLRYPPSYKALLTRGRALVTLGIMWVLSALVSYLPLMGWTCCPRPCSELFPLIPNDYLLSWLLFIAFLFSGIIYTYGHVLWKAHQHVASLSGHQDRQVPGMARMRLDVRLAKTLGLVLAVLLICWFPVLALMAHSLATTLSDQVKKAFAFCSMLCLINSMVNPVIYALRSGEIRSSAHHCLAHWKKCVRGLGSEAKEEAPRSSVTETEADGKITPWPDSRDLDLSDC
Label true when koff of fluorescent tracer is strictly below 0.02 s⁻¹; at or above that, label false.

Some solved entries appear below for comparison.
CCOC(=O)C(CC)(CCCSCCOCCNc1ccc([N+](=O)[O-])c2nonc12)NC(=O)c1ccc(C2CC2)c(Cc2ccc(F)cc2)n1 (stereo not drawn) = true
CCOC(=O)C(CC)(CCCSCCOCCOCCOCCOCCNc1ccc([N+](=O)[O-])c2nonc12)NC(=O)c1ccc(C2CC2)c(Cc2ccc(F)cc2)n1 (stereo not drawn) = false
CCOC(=O)C(CC)(CCCSCCOCCOCCOCCNc1ccc([N+](=O)[O-])c2nonc12)NC(=O)c1ccc(C2CC2)c(Cc2ccc(F)cc2)n1 (stereo not drawn) = false

**Query** Please state whether koff of fluorescent tracer is below 0.02 s⁻¹ for "CCCCCc1cc(O)c2c(c1)OC(C)(C)[C@@H]1CC=C(CNC(=O)CCCCCCNc3ccc([N+](=O)[O-])c4nonc34)C[C@@H]21"
**Result** true

**Query** Follow-up entry: CCOC(=O)C(CC)(CCCSCCOCCOCCNc1ccc([N+](=O)[O-])c2nonc12)NC(=O)c1ccc(C2CC2)c(Cc2ccc(F)cc2)n1 (stereo not drawn)
**Result** false

**Query** Follow-up entry: "CCCCCc1cc(O)c2c(c1)OC(C)(C)[C@@H]1CC=C(CNC(=O)CCCCC[n+]3cc(S(=O)(=O)[O-])ccc3/C=C/c3cc4ccc(N(CC)CC)cc4oc3=O)C[C@@H]21"
**Result** true
